Tested on: C2A
assay_remarks: qHTS profiling for inhibitors of Plasmodium falciparum proliferation (AID 504749); further: nearly all actives have a fitted effect of over 60% in size
test_context: P. falciparum in erythrocytes, SYBR Green DNA, 72 h; series mostly up to 28.7 µM
Records with an inconclusive call do not appear. Activity calls are given as the source filed them. The call rests on the fitted dose curve; in most records, active means well fitted inhibition curve with a large enough effect; inconclusive means small, poorly fitted or top-dose-only effect; inactive means flat fitted curve, though single readings scatter.
Just give me one of these, please: active, inactive

// below: answered compounds
[
  {
    "compound": "CCn1cc(C(=O)O)c(=O)c2cnc(N3CCNCC3)nc21",
    "assigned_category": "inactive"
  },
  {
    "compound": "CCCCN(CCCC)CC(O)c1cc(Cl)cc2c1-c1ccc(Cl)cc1/C2=C/c1ccc(Cl)cc1 (stereo not drawn)",
    "assigned_category": "active"
  },
  {
    "compound": "C[C@H](N)[C@H](O)c1cccc(O)c1",
    "assigned_category": "inactive"
  }
]

Challenge: // outcome(item) with item = CCCc1c(OCCCCc2nn[nH]n2)ccc(C(C)=O)c1O
Response given: inactive

Challenge: Record: CCN(CC)CCNC(=O)c1cc(Cl)c(N)cc1OC
Response given: inactive

* * *

Test system: HaCat
assay_remarks: Cytotoxic Profiling of Annotated Libraries Using Quantitative High-Throughput Screening (AID 1296008); further: nearly all actives have a fitted effect of over 60% in size
test_context: Five cell lines viability, CellTiter-Glo ATP luminescence, 48-72 h
Records with an inconclusive call do not appear. Active and inactive are the calls of the source. Calls come from the whole dose curve; as a rule, active = well fitted inhibition curve with a large enough effect; inconclusive = small, poorly fitted or top-dose-only effect; inactive = flat fitted curve, though single readings scatter.
Just give me one of these, please: label 1 for active, label 0 for inactive

[
  {
    "molecule": "O=C1c2c(O)cccc2Cc2cccc(O)c21",
    "assigned_category": "label 0"
  },
  {
    "molecule": "CC(C(O)c1ccc(O)cc1)N1CCC(Cc2ccccc2)CC1 (stereo unspecified)",
    "assigned_category": "label 0"
  },
  {
    "molecule": "CC[N+](CC)(CC)CCOc1ccc(/C=C/c2ccccc2)cc1",
    "assigned_category": "label 1"
  }
]

Challenge: // outcome(item) with item = CC1(C)CO[C@@H](CC(=O)O)CN1
Response given: label 0

Challenge: Record: C=CCn1c(=O)n([C@@H]2O[C@H](CO)[C@@H](O)[C@H]2O)c2nc(N)[nH]c(=O)c21
Response given: label 0

Challenge: Record: Cc1ncc(COP(=O)(O)O)c(C=O)c1O
Response given: label 0

* * *

assay_remarks: qHTS of pediatric cancer cell lines to identify multiple opportunities for drug repurposing: Primary screen for BT-12 cells (AID 1347101);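 further: plate controls were DMSO for no effect and bortezomib positive control for full effect; nearly all actives have a fitted effect of over 25% in size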
test_context: BT-12 viability, CellTiter-Glo luminescence, 48 h; series mostly up to 57.3 µM
Inconclusive results are not listed. Calls of active or inactive are those of the source. Calls come from the whole dose curve; as a rule, active = well fitted cell-killing curve with a large enough effect; inconclusive = small, poorly fitted or top-dose-only effect; inactive = flat fitted curve, though single readings scatter.
Just give me one of these, please: TRUE for active, FALSE for inactive

// below: answered compounds
[
  {
    "compound": "CCOC(=O)c1ccc(O)cc1",
    "assigned_category": "FALSE"
  },
  {
    "compound": "CC(=O)CCC(=O)O",
    "assigned_category": "FALSE"
  },
  {
    "compound": "O=C1c2c(O)cccc2Cc2cccc(O)c21",
    "assigned_category": "FALSE"
  },
  {
    "compound": "CCCCCCCCCCCCCCCCCCOCC(O)CO (stereo not drawn)",
    "assigned_category": "FALSE"
  },
  {
    "compound": "Cc1c(Cl)cccc1Nc1ccccc1C(=O)O",
    "assigned_category": "FALSE"
  },
  {
    "compound": "CO/N=C(\\C(=O)N[C@@H]1C(=O)N2C(C(=O)O)=C(CSc3nc(=O)c(O)nn3C)CS[C@H]12)c1csc(N)n1",
    "assigned_category": "FALSE"
  },
  {
    "compound": "C[C@@H]1CN(c2c(F)c(F)c3c(=O)c(C(=O)O)cn(C4CC4)c3c2F)C[C@H](C)N1",
    "assigned_category": "FALSE"
  },
  {
    "compound": "CCCCCCCCCCCCCCCC(=O)NCCO",
    "assigned_category": "FALSE"
  }
]

Challenge: // outcome(item) with item = Nc1ccc(S(=O)(=O)NC(=O)c2ccccc2)cc1
Response given: FALSE

* * *

assay_remarks: qHTS of pediatric cancer cell lines to identify multiple opportunities for drug repurposing: Primary screen for A673 cells (AID 1347092); further: on the % scale 0 is the no-effect control and ±100 the full control effect; nearly all actives have a fitted effect of over 45% in size
test_context: A673 Ewing sarcoma viability, CellTiter-Glo ATP luminescence, 48 h; series mostly up to 46 µM
Procedure: Drug repurposing or repositioning has been offered as a strategy for drug development in oncology programs. […] We employed a titration-based paradigm (quantitative high-throughput screening or qHTS), where all compounds were tested at multiple concentrations for their effect on cell viability. […] Shen, M et al. Quantitative high-throughput phenotypic screening of pediatric cancer cell lines identifies multiple opportunities for drug repurposing. […]
Records with an inconclusive call do not appear. Active and inactive are the calls of the source. Calls come from the whole dose curve; as a rule, active = well fitted cell-killing curve with a large enough effect; inconclusive = small, poorly fitted or top-dose-only effect; inactive = no such curve, though single readings can be large or run the other way.
Just give me one of these, please: active, inactive

// below: answered compounds
[
  {
    "compound": "CN(N=O)C(=O)N[C@@H]1[C@@H](O)[C@H](O)[C@@H](CO)O[C@@H]1O",
    "assigned_category": "inactive"
  },
  {
    "compound": "CC1CC(OC(=O)C(O)c2ccccc2)CC(C)(C)N1C (stereo unspecified)",
    "assigned_category": "inactive"
  },
  {
    "compound": "O=Cc1ccccc1C=O",
    "assigned_category": "inactive"
  }
]

Then there is this compound:
Challenge: // outcome(item) with item = CCCCc1ncc(/C=C(\Cc2cccs2)C(=O)O)n1Cc1ccc(C(=O)O)cc1
Response given: inactive

* * *

Tested on: DIV30
assay_remarks: qHTS profiling for inhibitors of Plasmodium falciparum proliferation (AID 504749); further: nearly all actives have a fitted effect of over 60% in size
test_context: P. falciparum in erythrocytes, SYBR Green DNA, 72 h; series mostly up to 28.7 µM
Records with an inconclusive call do not appear. Calls of active or inactive are those of the source. The call rests on the fitted dose curve; in most records, active means well fitted inhibition curve with a large enough effect; inconclusive means small, poorly fitted or top-dose-only effect; inactive means flat fitted curve, though single readings scatter.
Just give me one of these, please: active, inactive

Challenge: // outcome(item) with item = CC1=C(/C=C/C(C)=C/C=C/C(C)=C/C(=O)O)C(C)(C)CCC1
Response given: inactive

Challenge: Record: CCCCN1CCCC[C@H]1C(=O)Nc1c(C)cccc1C
Response given: inactive

Challenge: Record: O=C(O)CC(O)C(=O)O (stereo not drawn)
Response given: inactive

Challenge: Record: O=C(O)CN1C(=O)c2cccc3cccc(c23)C1=O
Response given: inactive

Challenge: Record: COc1ccc2c(c1)C(=O)N(CCc1ccc(S(=O)(=O)NC(=O)NC3CCCCC3)cc1)C(=O)C2(C)C
Response given: inactive

Challenge: Record: CCCCc1ncc(/C=C(\Cc2cccs2)C(=O)O)n1Cc1ccc(C(=O)O)cc1
Response given: inactive

* * *

# activity, negative = cell killing values compiled below
assay_remarks: Drug repurposing screens with cells derived from glioblastoma tumor samples (AID 1345199); further: on the % scale 0 is the no-effect control and ±100 the full control effect; nearly all actives have a fitted effect of over 40% in size
test_context: GBM patient neurospheres viability, ATP luminescence, 48 h; at 46 µM (top of the series); tumour line A
Inconclusive results are not listed.
Give the value in % but do not write % after it.

[
  {
    "compound": "Nc1cc(=O)[nH]c(N)n1",
    "observation_type": "activity, negative = cell killing",
    "measurement_units": "%",
    "result_number": -24.4
  },
  {
    "compound": "CCOC(=O)[C@H](CCc1ccccc1)N[C@@H](C)C(=O)N1C(=O)N(C)C[C@H]1C(=O)O",
    "observation_type": "activity, negative = cell killing",
    "measurement_units": "%",
    "result_number": -37.7
  },
  {
    "compound": "C[C@H]1O[C@@H](n2cc(F)c(=O)[nH]c2=O)[C@H](O)[C@@H]1O",
    "observation_type": "activity, negative = cell killing",
    "measurement_units": "%",
    "result_number": -26.5
  },
  {
    "compound": "Nc1ncnc2c1ncn2[C@@H]1O[C@H](CO)[C@@H](O)[C@H]1O",
    "observation_type": "activity, negative = cell killing",
    "measurement_units": "%",
    "result_number": -12.9
  },
  {
    "compound": "C[C@](N)(Cc1ccc(O)cc1)C(=O)O",
    "observation_type": "activity, negative = cell killing",
    "measurement_units": "%",
    "result_number": -16.9
  }
]

Challenge: Find the recorded activity, negative = cell killing belonging to OC[C@H]1O[C@@H](O[C@@H]2[C@@H](CO)O[C@](O)(CO)[C@H]2O)[C@H](O)[C@@H](O)[C@H]1O and report it.
Response given: -20.9

Challenge: Record: CCCCCCCCCCCCCCCCCCOCC(O)CO (stereo not drawn)
Response given: -23.8

Challenge: Record: CC(C)(C(=O)O)c1ccc(C(O)CCCN2CCC(C(O)(c3ccccc3)c3ccccc3)CC2)cc1 (stereo not drawn)
Response given: -18.8

Challenge: Record: COc1ccc(Cl)cc1C(=O)NCCc1ccc(S(=O)(=O)NC(=O)NC2CCCCC2)cc1
Response given: -29

Challenge: Record: C[C@@H](O)[C@H](N)C(=O)O
Response given: -29.7

Challenge: Record: Cn1c(=O)c2c(ncn2CC2OCCO2)n(C)c1=O
Response given: -20.3

Challenge: Record: C[C@@H]1CCN(C(=O)[C@H](CCCN=C(N)N)NS(=O)(=O)c2cccc3c2NC[C@H](C)C3)[C@@H](C(=O)O)C1
Response given: -6.41

Challenge: Record: O=C1c2c(O)cccc2Cc2cccc(O)c21
Response given: -24.5

Challenge: Record: O=C1NS(=O)(=O)c2ccccc21
Response given: -6.92

Challenge: Record: CCCCc1ncc(/C=C(\Cc2cccs2)C(=O)O)n1Cc1ccc(C(=O)O)cc1
Response given: -19.8

Challenge: Record: CC1=C(CC(=O)O)c2cc(F)ccc2/C1=C\c1ccc(S(C)(=O)=O)cc1
Response given: -33

Challenge: Record: O=c1[nH]cnc2c1ncn2[C@@H]1O[C@H](CO)[C@@H](O)[C@H]1O
Response given: 7.03

Challenge: Record: NCC(=O)CCC(=O)O
Response given: -11

Challenge: Record: CC(=O)Nc1ccc(/C=N/NC(N)=S)cc1
Response given: -28.2

Challenge: Record: O=C1N=C(O)CN1/N=C/c1ccc(-c2ccc([N+](=O)[O-])cc2)o1
Response given: -22.1

Challenge: Record: NC(=O)NNc1ccccc1
Response given: -34.9

Challenge: Record: Cc1cccc(Nc2cc(Cl)nc(SCC(=O)O)n2)c1C
Response given: -33.3

Challenge: Record: NC(=O)c1ncn([C@@H]2O[C@H](CO)[C@@H](O)[C@H]2O)c1N
Response given: -19.7

Challenge: Record: CC(O)CN(CCN(CC(C)O)CC(C)O)CC(C)O (stereo not drawn)
Response given: -27.7

Challenge: Record: COc1ccc(S(=O)(=O)Nc2nnc(CC(C)C)s2)cc1
Response given: -18
